Below, each of the molecules is paired with its reported activity score value.
# procedure.text: perturbers of mRNA poly(A) processing – luminescence, S. cerevisiae, primary screen (AID 1875);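 also: yeast exposed to compound for 9 h at 30 °C; higher score means more reporter readthrough which indicates perturbed polyadenylation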
# condition: S. cerevisiae SKY197-pL101 polyadenylation reporter, beta-gal luminescence; at 12 µM; hits give high values; efflux-impaired pdr1/pdr3 knockout yeast; score 100 = 6 SD above DMSO
Screen size: about 300,000 compounds; about 65 (0.02%) were called active. Shown is part of a subset that was picked to be rich in actives.
Dear colleague, please return just the value in %, with no unit written.

• Cc1nnc(SC(C)C(=O)Nc2ccc(S(=O)(=O)NC3CCCCC3)cc2)s1 (stereo unspecified) = -4.69
• N#C/C=C\Oc1ccc(Cl)cc1N = -86.8
• O=C(c1[nH]ncc1-c1ccc(Cl)cc1)C1CO1 (stereo unspecified) = 19.5
• CCN(CC)c1ccc(C(=O)Nn2c(C)nc3ccccc3c2=O)cc1 = -0.748
• COCCNC(=S)N1CCN(C)CC1 = -14.8

Give the measured activity score of COc1ccc(N2CCN(CCNC(=O)Nc3cc(Cl)ccc3Cl)CC2)cc1 .
-1.83

###

# procedure.text: perturbers of mRNA poly(A) processing – luminescence, S. cerevisiae, primary screen (AID 1875);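 also: yeast exposed to compound for 9 h at 30 °C; higher score means more reporter readthrough which indicates perturbed polyadenylation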
# condition: S. cerevisiae SKY197-pL101 polyadenylation reporter, beta-gal luminescence; at 12 µM; hits give high values; efflux-impaired pdr1/pdr3 knockout yeast; score 100 = 6 SD above DMSO
Screen size: about 300,000 compounds; about 65 (0.02%) were called active. The sample holds actives, similar compounds and a random draw of the others, so the mix is not that of the screen.
readout: activity score (%)
# unit: % | format: bare number

Some molecules with known activity score results, for comparison:
• CC(=O)NC(Cc1ccc(F)c(F)c1)C(=O)NC1CCN(c2nnnn2-c2ccccc2)CC1 (centres undefined) = -5.96
• Cc1ccc(C(=O)NC2CCCC(C)C2C)cc1S(=O)(=O)N1CCCCC1 (centres undefined) = 0.169
• COc1ccc(CCN(C)C(=O)C23CC4CC(CC(Cl)(C4)C2)C3)cc1OC = 5.22
• COC(=O)C(=Nc1ccccc1)/C(C(=O)C(=O)N(C)c1ccccc1)=C(\O)c1ccc(Cl)cc1 = 3.12
• CCOC(=O)c1nn(-c2ccccc2F)c2nc(Nc3ccccc3)cc(=O)n12 = -12.8

Entry under review: O=C(C1CCN(c2nnc(-n3cccc3)s2)CC1)N1CCc2ccccc2C1 . Reported activity score?
9.11

Name the recorded activity score for COc1ccc(C2Nc3ccccc3C(=O)N2c2ccc(Cl)cc2)cc1Cn1cc([N+](=O)[O-])cn1 (centres undefined) .
-9.63

// activity score lookup, key: O=C(COc1coc(CN2CCN(c3ccccc3)CC2)cc1=O)N1CCc2ccccc21
-4.04

Would you mind telling me what activity score value was observed for Cc1ccc(CNC(=O)Cn2c(=O)c3sccc3n(Cc3cccc([N+](=O)[O-])c3)c2=O)cc1 ?
-7.25

###

activity score listing for selected compounds.
# procedure.text: perturbers of mRNA poly(A) processing – luminescence, S. cerevisiae, primary screen (AID 1875);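 also: yeast exposed to compound for 9 h at 30 °C; higher score means more reporter readthrough which indicates perturbed polyadenylation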
# condition: S. cerevisiae SKY197-pL101 polyadenylation reporter, beta-gal luminescence; at 12 µM; hits give high values; efflux-impaired pdr1/pdr3 knockout yeast; score 100 = 6 SD above DMSO
The whole screen tested about 300,000 compounds, of which about 65 (0.02%) were called active. For the sample, actives were picked, then their nearest neighbours and some compounds at random.
# output: bare number, implied unit %

Please review the entries below; each comes with its answer.
• Cc1ccc(NC(=O)c2cc3ccccc3o2)cc1 = -13.9
• COc1ccc(C(=O)N(Cc2ccccc2)c2ccc(C)cc2)cc1S(=O)(=O)N1CCOCC1 = -2.8
• O=C(NCc1ccccc1)C(c1cccnc1)N(C(=O)c1csnn1)c1ccc(F)cc1 (stereo not drawn) = 5.05
• CCn1c(CC(=O)Nc2ccccc2C)nnc1SCC(=O)NC1=NCCS1 = -11.9
• CN(C)Cc1ccccc1C1(O)c2ccccc2CSc2ccccc21 (stereo not drawn) = -2.69
• S=c1[nH]cc(-c2ccc(Cl)cc2)n1-c1ccccc1 = -13.1
• COc1ccc(-n2c(O)c(C=NCC(c3ccco3)N3CCCC3)c3ccccc3c2=O)cc1OC (stereo not drawn) = 6.18
• COc1ccccc1N1CCN(S(=O)(=O)c2ccc3c(c2)NC(=O)CS3)CC1 = 9.75

Form field: reported activity score of Cc1ccc(CS(=O)(=O)CCC(=O)NCc2ccc(F)cc2)cc1
-0.106

Could you tell me which activity score is on file for CCC(Cc1ccccc1)NC(=O)C1CCCCC1 (stereo not drawn) ?
15.5

What value of measured activity score is listed for COc1ccc(C(=O)C2CCCN(C(=O)c3cc4nc(C)cc(C)n4n3)C2)cc1F (stereo not drawn) ?
4.72

Returns the measured activity score for the input compound. Input: CCN(CC)Cc1c(C(=O)N/N=C/c2cccc(OCc3ccc(F)cc3)c2)nnn1-c1nonc1N
-15.4

Endpoint output: activity score of Cc1ccc(NC(=O)C(=O)NCC2CCN(C(=O)c3cccc([N+](=O)[O-])c3)CC2)cc1 . Value?
15.6

Can you look up the measured activity score of CCOc1ccc(S(=O)(=O)NCc2ccc3c(c2)OCO3)cc1C for me?
12.5

What does the record list as activity score for Cc1ccc(OCC(=O)NCCCNC(=O)c2cccnc2)cc1C ?
0.135

Fill in: activity score of O=C(O)Cn1c(Cc2ccccc2)nc2ccccc21 is ___
-5.1

Fill blank: measured activity score of the compound Cc1c(Br)cc(C(=O)N2CCCCCC2)c(C)c1C is ____.
-12.8

Recorded values, source PubChem BioAssay AID1875.
